Target: GST fusion human ERK2 protein (Homo sapiens)
Construct: purchased Carna Biosciences, Inc; host or cells: E. coli expression system
Sequence (P28482 whole entry, the tested form may be a part): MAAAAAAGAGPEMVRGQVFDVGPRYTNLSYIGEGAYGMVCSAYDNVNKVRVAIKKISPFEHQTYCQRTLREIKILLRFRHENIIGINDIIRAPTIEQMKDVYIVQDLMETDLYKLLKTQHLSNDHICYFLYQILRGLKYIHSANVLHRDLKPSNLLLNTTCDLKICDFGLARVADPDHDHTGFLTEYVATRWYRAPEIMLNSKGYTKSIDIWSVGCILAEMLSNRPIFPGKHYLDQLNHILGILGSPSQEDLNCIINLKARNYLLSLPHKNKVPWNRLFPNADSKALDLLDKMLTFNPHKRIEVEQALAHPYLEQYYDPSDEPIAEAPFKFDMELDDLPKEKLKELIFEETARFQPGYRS
Test: ERK2 enzyme assay (2)
Type: biochemical
Settings: ERK2 enzyme assay (2); read-out: ERK2 enzyme inhibitory activity (2)
Method: In an ERK2 enzyme assay, GLUTATHIONE S-TRANSFERASE (GST) FUSION HUMAN ERK2 PROTEIN (manufactured by Carna Biosciences, Inc.), which was produced by using an E. coli expression system, was used. […] The inhibitory activities of the compounds were evaluated using IC50 (50% inhibitory concentration). The IC50 was calculated using XLFIT (trade name, manufactured by ID Business Solutions).
pIC50: −log10 of the molar value.
property.label: pIC50

| compound | tested.system | property.label | value.observed |
| --- | --- | --- | --- |
| CC(C)c1cnnc(Nc2ccc3ncc(-c4cn(C)nc4-c4ccnc(OCCN(C)C)c4)cc3n2)c1 | GST fusion human ERK2 protein (Homo sapiens) | pIC50 | > 6.00 |
| CC(C)c1cnnc(Nc2ccc3ncc(-c4cnn(CCCN5CC(O)(CCO)C5)c4)cc3n2)c1 | GST fusion human ERK2 protein (Homo sapiens) | pIC50 | > 6.00 |
| Cn1cc(-c2cnc3ccc(Nc4nnc(C5CCOC5)s4)nc3c2)cn1 (centres unmarked) | GST fusion human ERK2 protein (Homo sapiens) | pIC50 | > 6.00 |
| CC(C)c1cnnc(Nc2ccc3ncc(N4CCC(C(F)(F)F)C4)cc3n2)c1 (centres unmarked) | GST fusion human ERK2 protein (Homo sapiens) | pIC50 | 5.00 to 6.00 |
| CC(C)c1cnnc(Nc2ccc3ncc(-c4cnn(CCCN5CCOC(C)(C)C5)c4)cc3n2)c1 | GST fusion human ERK2 protein (Homo sapiens) | pIC50 | > 6.00 |

Q. Consider the compound CC(C)c1cnnc(Nc2ccc3ncc(-c4cnn(CCCN5CCOC[C@@H]5C)c4)cc3n2)c1 and give its measured pIC50.
A. > 6.00

Q. Now try CN1CCC(n2cc(-c3cnc4ccc(Nc5nnc(C6CCCC6)s5)nc4c3)cn2)CC1 .
A. > 6.00

Q. Param item: CC(C)c1cnnc(Nc2ccc3ncc(-c4cnn(CCC(=O)N5CCCCC5)c4)cc3n2)c1
A. > 6.00

* * *

Quick reference for pIC50 among some compounds
Target: GST fusion human ERK2 protein (Homo sapiens)
Construct: purchased Carna Biosciences, Inc; host or cells: E. coli expression system
Assay: ERK2 enzyme assay (1)
Format: biochemical
Details: 2.5 nmol/L ERK2, ATP 43.1 μmol/L; read-out: ERK2 enzyme inhibitory activity (1)
Procedure: In an ERK2 enzyme assay, GLUTATHIONE S-TRANSFERASE (GST) FUSION HUMAN ERK2 PROTEIN (manufactured by Carna Biosciences, Inc.), which was produced by using an E. coli expression system, was used. […] The inhibitory activities of the compounds were evaluated using IC50 (50% inhibitory concentration). The IC50 was calculated using XLFIT (trade name, manufactured by ID Business Solutions).
pIC50: −log10 of the molar value. Structures can show the parent of a compound that is named as a salt.

Record excerpt, results attached:
| compound | pIC50 |
| --- | --- |
| CC(C)c1nnc(Nc2ccc3nccc(Nc4ccccc4)c3n2)s1 [Example 0009] | 5.00 to 6.00 |
| O=S(=O)(Nc1ccccc1)c1nnc(Nc2ccc3ncc(-c4cnn(CCN5CCOCC5)c4)cc3n2)s1 [Example 0188, sodium salt] | > 6.00 |
| COc1ccc(-c2cnc3ccc(Nc4nccs4)nc3c2)cc1OC [Example 0023] | 5.00 to 6.00 |
| O=C1C=C(c2cnc3ccc(Nc4nnc(C5CCCC5)s4)nc3c2)CO1 [Example 0045, hydrochloride] | > 6.00 |
| OCCN1CCN(c2cnc3ccc(Nc4nnc(C5CCCC5)s4)nc3c2)CC1 [Example 0046, hydrochloride] | > 6.00 |

Q. Item CN(c1cnc2ccc(Nc3nnc(C4CCCC4)s3)nc2c1)c1cnn(C)c1 [Example 0195] has what recorded pIC50?
A. > 6.00

Q. Moving on to CN(C)S(=O)(=O)c1nnc(Nc2ccc3ncc(-c4cnn(C)c4)cc3n2)s1 [Example 0193]
A. > 6.00

Q. Next entry: Brc1cnc2ccc(Nc3nnc(C4CCCC4)s3)nc2c1 [Example 0039]
A. > 6.00

* * *

Molecular target: human PI3Kα protein (Homo sapiens, UniProt P42336)
Construct: purchased Carna Biosciences, Inc; host or cells: baculovirus expression system
Sequence (P42336 whole entry): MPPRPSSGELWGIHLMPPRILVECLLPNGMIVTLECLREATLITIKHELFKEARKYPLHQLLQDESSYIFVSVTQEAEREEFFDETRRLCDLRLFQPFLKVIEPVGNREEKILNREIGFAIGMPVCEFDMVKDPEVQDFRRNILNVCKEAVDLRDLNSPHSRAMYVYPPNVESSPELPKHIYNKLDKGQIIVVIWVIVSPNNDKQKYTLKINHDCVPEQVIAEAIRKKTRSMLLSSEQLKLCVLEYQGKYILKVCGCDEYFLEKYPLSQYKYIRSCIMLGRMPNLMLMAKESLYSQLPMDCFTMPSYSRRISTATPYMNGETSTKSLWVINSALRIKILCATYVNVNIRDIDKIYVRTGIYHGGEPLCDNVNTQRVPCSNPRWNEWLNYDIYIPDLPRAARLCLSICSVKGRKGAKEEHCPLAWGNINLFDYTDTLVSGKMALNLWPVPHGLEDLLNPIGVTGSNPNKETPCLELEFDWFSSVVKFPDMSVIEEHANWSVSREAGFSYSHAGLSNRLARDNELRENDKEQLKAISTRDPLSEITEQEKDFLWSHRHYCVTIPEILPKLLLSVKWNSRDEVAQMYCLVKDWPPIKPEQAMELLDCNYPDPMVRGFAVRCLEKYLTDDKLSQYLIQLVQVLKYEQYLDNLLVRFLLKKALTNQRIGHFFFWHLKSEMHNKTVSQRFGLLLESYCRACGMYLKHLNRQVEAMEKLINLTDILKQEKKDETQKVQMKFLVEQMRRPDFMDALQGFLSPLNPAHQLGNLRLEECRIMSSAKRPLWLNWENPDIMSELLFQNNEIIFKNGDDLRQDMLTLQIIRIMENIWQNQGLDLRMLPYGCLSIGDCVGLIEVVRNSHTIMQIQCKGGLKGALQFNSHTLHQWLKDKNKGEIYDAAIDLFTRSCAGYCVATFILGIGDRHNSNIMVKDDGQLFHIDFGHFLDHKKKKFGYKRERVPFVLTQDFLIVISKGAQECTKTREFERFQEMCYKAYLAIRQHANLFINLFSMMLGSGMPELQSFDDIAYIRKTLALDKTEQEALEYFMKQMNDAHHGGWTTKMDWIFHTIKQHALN
Sequence (P27986 whole entry partner): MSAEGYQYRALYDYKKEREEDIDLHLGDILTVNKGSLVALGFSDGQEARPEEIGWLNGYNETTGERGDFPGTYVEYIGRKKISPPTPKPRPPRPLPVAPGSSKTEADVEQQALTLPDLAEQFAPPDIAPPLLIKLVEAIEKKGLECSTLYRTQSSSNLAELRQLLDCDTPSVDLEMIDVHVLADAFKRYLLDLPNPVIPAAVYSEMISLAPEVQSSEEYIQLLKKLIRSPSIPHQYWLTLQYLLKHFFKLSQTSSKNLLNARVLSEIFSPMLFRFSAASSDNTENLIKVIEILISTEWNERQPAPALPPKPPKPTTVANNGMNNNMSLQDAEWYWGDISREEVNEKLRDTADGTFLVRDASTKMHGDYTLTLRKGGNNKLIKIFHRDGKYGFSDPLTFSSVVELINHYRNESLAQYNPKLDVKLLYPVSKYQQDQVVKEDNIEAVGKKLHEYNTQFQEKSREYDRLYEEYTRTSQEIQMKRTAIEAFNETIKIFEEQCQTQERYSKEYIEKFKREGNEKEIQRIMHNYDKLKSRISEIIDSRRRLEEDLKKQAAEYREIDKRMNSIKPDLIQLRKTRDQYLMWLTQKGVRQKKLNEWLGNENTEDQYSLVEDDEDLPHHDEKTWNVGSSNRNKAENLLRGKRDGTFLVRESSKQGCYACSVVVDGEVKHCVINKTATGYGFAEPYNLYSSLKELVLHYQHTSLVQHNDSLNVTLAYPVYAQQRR
Assay: PI3Kα enzyme assay (ADP-Glo)
Format: biochemical
Conditions: read-out: PI3Kα enzyme inhibitory activity
The following molecules are listed with their measured IC50 values.

Some molecules with known IC50 results, for comparison:
| molecule | IC50 |
| --- | --- |
| CC(C)c1cnnc(Nc2ccc3ncc(-c4cn(C)nc4CC4CC4)cc3n2)c1 [Example 0781] | < 1000 nM |
| CC(=O)N1CCC(c2nnc(Nc3ccc4ncc(-c5cnn(C)c5)cc4n3)s2)C1 (stereo not drawn) [Example 0253] | 1000 to 10000 nM |
| COCC1(Nc2cnc3ccc(Nc4cc(C(C)C)cnn4)nc3c2)CCC1 [Example 0889] | 10000 to 50000 nM |
| CC(C)c1cnnc(Nc2ccc3ncc(-c4cn(C)nc4-c4cccnc4)cc3n2)c1 [Example 0515] | < 1000 nM |
| CC(C)c1cnnc(Nc2ccc3ncc(-c4cnn(CCCc5ccccc5)c4)cc3n2)c1 [Example 0372] | 1000 to 10000 nM |
| CC(C)c1cnnc(Nc2ccc3ncc(-n4cnc(CO)c4)cc3n2)c1 [Example 0497] | 1000 to 10000 nM |
| CC(C)c1cnnc(Nc2ccc3ncc(-c4cnn(CCCN(C)CC(=O)O)c4)cc3n2)c1 [Example 0667] | < 1000 nM |
| COC1CN(CCCn2cc(-c3cnc4ccc(Nc5cc(C(C)C)cnn5)nc4c3)c(C)n2)C1 [Example 0796] | < 1000 nM |
| CC(C)c1cnnc(Nc2ccc3ncc(-c4cnn(Cc5ccc(N6CCOCC6)nc5)c4)cc3n2)c1 [Example 0462] | < 1000 nM |
| CC(C)c1cnnc(Nc2ccc3ncc(C(=O)NCCO)cc3n2)c1 [Example 0655] | 1000 to 10000 nM |

Q. Recorded IC50 of C=C(C)c1cnnc(Nc2ccc3ncc(-c4cn(C)nc4C)cc3n2)c1 [Example 0785] , please.
A. < 1000 nM

Q. How about this molecule: CC(C)c1cnnc(Nc2ccc3ncc(-c4cc(N)ncn4)cc3n2)c1 [Example 0765]
A. < 1000 nM

Q. And then CC(C)c1cnnc(Nc2ccc3ncc(-c4cnn(C)c4-c4cccnc4)cc3n2)c1 [Example 0575] , what is it?
A. < 1000 nM

* * *

Target: human PI3Kα protein (Homo sapiens, UniProt P42336)
Construct: purchased Carna Biosciences, Inc; host or cells: baculovirus expression system
Assay: PI3Kα enzyme assay (ADP-Glo)
Type: biochemical
Details: 4.5 nmol/L PI3Kα, PIP2 50 μmol/L, ATP 100 μmol/L; read-out: PI3Kα enzyme inhibitory activity
Structures can show the parent of a compound that is named as a salt.
property.label: IC50

| compound | tested.system | property.label | value.observed |
| --- | --- | --- | --- |
| O=S(=O)(Nc1nnc(Nc2ccc3ncc(-c4cnn(CCN5CCOCC5)c4)cc3n2)s1)c1ccccc1 [Example 0179] | human PI3Kα protein (Homo sapiens, UniProt P42336) | IC50 | < 1 µM |
| CCCc1nn(CCCN2CCCC2)cc1-c1cnc2ccc(Nc3nnc(C(C)C)s3)nc2c1 [Example 0147] | human PI3Kα protein (Homo sapiens, UniProt P42336) | IC50 | < 1 µM |
| Cc1ccc(Nc2ccc3ncc(-c4cnn(C)c4)cc3n2)nn1 [Example 0151] | human PI3Kα protein (Homo sapiens, UniProt P42336) | IC50 | 10 to 50 µM |

Q. Sample OCCN1CCN(c2cnc3ccc(Nc4nnc(C5CCCC5)s4)nc3c2)CC1 [Example 0046, hydrochloride] — what was its IC50?
A. 1 to 10 µM

Q. Same question, CN(C)S(=O)(=O)c1nnc(Nc2ccc3ncc(-c4cnn(C)c4)cc3n2)s1 [Example 0193] this time
A. < 1 µM

* * *

Target: human PI3Kα protein (Homo sapiens)
Construct: purchased Carna Biosciences, Inc; host or cells: baculovirus expression system
Experiment: PI3Kα enzyme assay (ADP-Glo)
Type: biochemical
Details: 4.5 nmol/L PI3Kα, PIP2 50 μmol/L, ATP 100 μmol/L; read-out: PI3Kα enzyme inhibitory activity
pIC50: −log10 of the molar value. Counter-ions that a name gives are not always drawn.
Catalogue of compounds with associated pIC50

The following compounds have reported results that may help.
| compound | tested.system | pIC50 |
| --- | --- | --- |
| CN1CCN(CCCn2cc(-c3cnc4ccc(Nc5nnc(C6CCCC6)s5)nc4c3)cn2)CC1 | human PI3Kα protein (Homo sapiens) | > 6.00 |
| COCc1nn(C)cc1-c1cnc2ccc(Nc3cc(C(C)C)cnn3)nc2c1 | human PI3Kα protein (Homo sapiens) | > 6.00 |
| Cn1cc(-c2cnc3ccc(Nc4nnc(S(=O)(=O)NCc5ccccc5)s4)nc3c2)cn1 [Example 0192, sodium salt] | human PI3Kα protein (Homo sapiens) | > 6.00 |
| Cc1ccncc1Nc1cnc2ccc(Nc3nnc(C4CCCC4)s3)nc2c1 | human PI3Kα protein (Homo sapiens) | 5.00 to 6.00 |
| COc1nn(C)cc1-c1cnc2ccc(Nc3nnc(C4CCCC4)s3)nc2c1 | human PI3Kα protein (Homo sapiens) | > 6.00 |

Q. Value lookup for pIC50; key = CC(C)c1nnc(Nc2ccc3ncc(-c4cnn(C)c4)cc3n2)s1
A. > 6.00

Q. Now try CN(c1cn[nH]c1)c1cnc2ccc(Nc3nnc(C4CCCC4)s3)nc2c1 .
A. 5.00 to 6.00

Q. For COC1CN(c2cnc3ccc(Nc4nnc(C5CCCC5)s4)nc3c2)C1 then?
A. 5.00 to 6.00

Q. Now the same for CS(=O)(=O)N1CCC(Nc2cnc3ccc(Nc4nnc(C5CCCC5)s4)nc3c2)CC1
A. > 6.00

Q. Can you handle CN(c1cnc2ccc(Nc3nnc(C4CCCC4)s3)nc2c1)c1cnn(C)c1 next?
A. 5.00 to 6.00

Q. Now try c1nc2ccc(Nc3nnc(C4CCCC4)s3)nc2cc1N1CCNCC1 .
A. 5.00 to 6.00

Q. Repeat with COc1cncc(Nc2cnc3ccc(Nc4cc(C)cnn4)nc3c2)c1
A. > 6.00

Q. Can you check CCCCc1nn(C)cc1-c1cnc2ccc(Nc3nnc(C(C)C)s3)nc2c1 next?
A. > 6.00
